test: Evaluation of physiological activity: pharmacokinetics after oral or intravenous administration; assay type: in vivo; details: plasma, po relative to iv; male mouse, 5 mg/kg; printed in the Intravenous Injection column; read-out: Ft, bioavailability
attribute.measured: bioavailability

1. COC(=O)N[C@@H](C(=O)N1CCC[C@H]1C(=O)Nc1ccc(-c2ccc(NC(=O)[C@@H]3CCCN3C(=O)[C@H](NC(=O)OC)c3ccccc3)cc2)cc1)c1ccccc1 = 20%

###

molecular target: hERG (Homo sapiens, UniProt Q12809)
Sequence (Q12809 whole entry): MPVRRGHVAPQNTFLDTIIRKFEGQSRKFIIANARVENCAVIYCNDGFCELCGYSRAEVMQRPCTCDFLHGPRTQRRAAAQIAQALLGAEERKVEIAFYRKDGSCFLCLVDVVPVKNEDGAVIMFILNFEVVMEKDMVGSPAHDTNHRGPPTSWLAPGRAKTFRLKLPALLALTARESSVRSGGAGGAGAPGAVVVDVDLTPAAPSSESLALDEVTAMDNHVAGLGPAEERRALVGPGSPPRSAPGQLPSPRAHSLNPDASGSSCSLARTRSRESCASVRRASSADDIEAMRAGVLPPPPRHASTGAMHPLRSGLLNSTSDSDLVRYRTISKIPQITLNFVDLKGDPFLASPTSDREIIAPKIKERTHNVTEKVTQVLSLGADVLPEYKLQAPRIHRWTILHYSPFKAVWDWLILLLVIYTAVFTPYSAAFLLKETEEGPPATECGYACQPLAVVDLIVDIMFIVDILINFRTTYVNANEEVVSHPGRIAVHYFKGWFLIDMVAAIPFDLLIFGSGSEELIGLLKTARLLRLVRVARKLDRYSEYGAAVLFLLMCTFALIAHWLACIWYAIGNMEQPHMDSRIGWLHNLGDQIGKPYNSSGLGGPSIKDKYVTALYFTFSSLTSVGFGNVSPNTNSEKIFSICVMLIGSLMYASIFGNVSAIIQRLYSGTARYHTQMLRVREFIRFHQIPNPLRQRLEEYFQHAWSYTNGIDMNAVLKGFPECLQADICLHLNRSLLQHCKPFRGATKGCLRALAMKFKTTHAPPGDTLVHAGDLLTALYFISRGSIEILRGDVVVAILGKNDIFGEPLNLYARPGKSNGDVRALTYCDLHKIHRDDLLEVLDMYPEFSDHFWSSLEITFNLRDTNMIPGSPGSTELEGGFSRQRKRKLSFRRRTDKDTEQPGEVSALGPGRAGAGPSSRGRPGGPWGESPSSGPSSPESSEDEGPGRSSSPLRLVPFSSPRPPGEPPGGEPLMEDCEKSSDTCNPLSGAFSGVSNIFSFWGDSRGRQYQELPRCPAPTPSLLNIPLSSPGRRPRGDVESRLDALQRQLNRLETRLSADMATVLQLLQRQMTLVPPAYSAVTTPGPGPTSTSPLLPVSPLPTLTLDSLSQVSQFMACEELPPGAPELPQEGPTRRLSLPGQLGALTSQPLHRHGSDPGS
attribute.measured: IC50 (µM)

1) COC(=O)N[C@@H](C(=O)N1CCC[C@H]1C(=O)Nc1ccc(-c2ccc(NC(=O)[C@@H]3CCCN3C(=O)[C@H](NC(=O)OC)c3ccccc3)cc2)cc1)c1ccccc1 [Example 16] = 9.8

###

experiment: Evaluation of physiological activity: pharmacokinetics after oral or intravenous administration; type: in vivo; settings: plasma, iv; male mouse, intravenously injected, 5 mg/kg; read-out: AUC0-∞, value up to infinite time from the administration
attribute.measured: AUC(0-inf) (ng·h/mL)

1. COC(=O)N[C@@H](C(=O)N1CCC[C@H]1C(=O)Nc1ccc(-c2ccc(NC(=O)[C@@H]3CCCN3C(=O)[C@H](NC(=O)OC)c3ccccc3)cc2)cc1)c1ccccc1 = 9370

###

Experiment: Evaluation of physiological activity: pharmacokinetics after oral or intravenous administration
Type: in vivo
Settings: plasma; male mouse, intravenous injection, 5 mg/kg; read-out: T1/2 (time) (converted)
Experimental: The following experiment was performed to evaluate physiological activity of the compound prepared in Example 16 by observing the pharmacokinetic changes. Particularly, the compound of Example 16 was orally or intravenously administered to male mouse, followed by observation of the pharmacokinetic changes. For the oral administration, the compound of Example 16 was dissolved to make the concentration 2.5 mg/ml. […]
attribute.measured: half-life (h)

1. COC(=O)N[C@@H](C(=O)N1CCC[C@H]1C(=O)Nc1ccc(-c2ccc(NC(=O)[C@@H]3CCCN3C(=O)[C@H](NC(=O)OC)c3ccccc3)cc2)cc1)c1ccccc1 = 4.09

###

experiment: Evaluation of physiological activity: pharmacokinetics after oral or intravenous administration; format: in vivo; settings: plasma, po; male mouse, orally administered, 5 mg/kg; read-out: AUC0-24, value up to 24 hours from the administration
attribute.measured: AUC0-t (ng·h/mL)

1. COC(=O)N[C@@H](C(=O)N1CCC[C@H]1C(=O)Nc1ccc(-c2ccc(NC(=O)[C@@H]3CCCN3C(=O)[C@H](NC(=O)OC)c3ccccc3)cc2)cc1)c1ccccc1 = 1830

###

experiment: Evaluation of physiological activity: pharmacokinetics after oral or intravenous administration; format: in vivo; settings: plasma, po; male mouse, orally administered, 5 mg/kg; read-out: AUC0-∞, value up to infinite time from the administration
attribute.measured: AUC(0-inf) (ng·h/mL)

1) COC(=O)N[C@@H](C(=O)N1CCC[C@H]1C(=O)Nc1ccc(-c2ccc(NC(=O)[C@@H]3CCCN3C(=O)[C@H](NC(=O)OC)c3ccccc3)cc2)cc1)c1ccccc1 [Example 16] = 2500

###

experiment: Evaluation of physiological activity: pharmacokinetics after oral or intravenous administration; format: in vivo; conditions: male mouse, oral administration, 5 mg/kg, plasma
attribute.measured: Cmax (ng/mL)

1. COC(=O)N[C@@H](C(=O)N1CCC[C@H]1C(=O)Nc1ccc(-c2ccc(NC(=O)[C@@H]3CCCN3C(=O)[C@H](NC(=O)OC)c3ccccc3)cc2)cc1)c1ccccc1 = 188

###

assay: Evaluation of physiological activity: pharmacokinetics after oral or intravenous administration; format: in vivo; details: plasma; male mouse, oral administration, 5 mg/kg; read-out: time to reach the maximum concentration (Tmax)
attribute.measured: Tmax (h)

1) COC(=O)N[C@@H](C(=O)N1CCC[C@H]1C(=O)Nc1ccc(-c2ccc(NC(=O)[C@@H]3CCCN3C(=O)[C@H](NC(=O)OC)c3ccccc3)cc2)cc1)c1ccccc1 [Example 16] = 2

Origin of measurements: patent US9598362B2
